Origin of measurements: paper PMC4279228

target: LFA-1 (CD11a/CD18, αLβ2 integrin) (Homo sapiens, UniProt P05107+P20701); assay: Kd of unlabelled compound with XVA-FITC probe, flow cytometry on cells
Sequence (P20701 26-1170): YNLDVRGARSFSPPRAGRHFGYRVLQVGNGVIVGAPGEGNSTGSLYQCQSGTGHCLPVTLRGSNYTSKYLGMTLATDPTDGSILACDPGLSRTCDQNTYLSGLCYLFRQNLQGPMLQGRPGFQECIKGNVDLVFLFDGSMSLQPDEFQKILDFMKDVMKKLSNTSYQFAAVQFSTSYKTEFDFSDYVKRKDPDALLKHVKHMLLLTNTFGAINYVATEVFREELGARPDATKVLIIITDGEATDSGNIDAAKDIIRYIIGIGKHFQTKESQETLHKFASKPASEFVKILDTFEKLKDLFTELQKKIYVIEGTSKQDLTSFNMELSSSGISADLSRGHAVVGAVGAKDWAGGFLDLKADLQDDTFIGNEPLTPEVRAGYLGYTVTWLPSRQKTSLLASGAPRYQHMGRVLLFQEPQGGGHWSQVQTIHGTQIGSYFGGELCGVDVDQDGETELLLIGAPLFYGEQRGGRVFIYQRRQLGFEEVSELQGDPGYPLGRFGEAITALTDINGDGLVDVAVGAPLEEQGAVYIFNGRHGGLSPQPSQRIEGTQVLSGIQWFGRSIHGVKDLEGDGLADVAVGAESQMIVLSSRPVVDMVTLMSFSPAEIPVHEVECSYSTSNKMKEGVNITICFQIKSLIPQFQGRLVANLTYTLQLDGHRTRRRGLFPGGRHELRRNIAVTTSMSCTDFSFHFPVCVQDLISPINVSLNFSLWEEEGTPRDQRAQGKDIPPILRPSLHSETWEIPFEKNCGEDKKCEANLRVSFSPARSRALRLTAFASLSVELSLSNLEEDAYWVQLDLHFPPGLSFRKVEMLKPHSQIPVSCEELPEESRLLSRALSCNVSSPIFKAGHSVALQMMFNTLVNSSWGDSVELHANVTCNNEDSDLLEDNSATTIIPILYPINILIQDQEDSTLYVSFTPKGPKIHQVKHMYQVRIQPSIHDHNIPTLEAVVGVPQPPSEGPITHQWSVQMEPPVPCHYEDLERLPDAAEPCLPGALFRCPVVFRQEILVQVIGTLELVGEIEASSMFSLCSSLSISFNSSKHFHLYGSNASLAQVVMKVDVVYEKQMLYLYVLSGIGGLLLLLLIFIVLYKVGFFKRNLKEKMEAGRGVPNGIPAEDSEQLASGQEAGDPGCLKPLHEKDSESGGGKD
Sequence (P05107 23-769): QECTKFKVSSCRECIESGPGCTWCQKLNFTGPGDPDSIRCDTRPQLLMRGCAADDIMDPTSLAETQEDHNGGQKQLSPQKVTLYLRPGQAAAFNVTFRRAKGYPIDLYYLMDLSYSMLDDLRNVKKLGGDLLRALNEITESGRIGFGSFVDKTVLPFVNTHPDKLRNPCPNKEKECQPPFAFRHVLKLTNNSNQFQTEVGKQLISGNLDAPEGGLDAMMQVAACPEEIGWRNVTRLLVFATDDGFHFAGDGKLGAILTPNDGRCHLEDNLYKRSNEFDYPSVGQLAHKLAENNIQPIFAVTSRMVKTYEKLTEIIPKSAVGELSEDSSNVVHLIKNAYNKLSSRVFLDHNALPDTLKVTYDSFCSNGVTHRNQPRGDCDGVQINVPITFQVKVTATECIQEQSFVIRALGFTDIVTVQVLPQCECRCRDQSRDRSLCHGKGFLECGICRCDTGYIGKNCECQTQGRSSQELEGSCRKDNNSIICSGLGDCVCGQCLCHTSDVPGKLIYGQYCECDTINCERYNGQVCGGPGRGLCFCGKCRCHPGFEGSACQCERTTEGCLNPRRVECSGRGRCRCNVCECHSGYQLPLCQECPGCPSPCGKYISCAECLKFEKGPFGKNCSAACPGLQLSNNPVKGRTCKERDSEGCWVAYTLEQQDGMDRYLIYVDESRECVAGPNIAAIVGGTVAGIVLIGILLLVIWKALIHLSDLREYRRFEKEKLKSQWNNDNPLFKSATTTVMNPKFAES
pKd: −log10 of the molar value.
QUANTITY_KIND: pKd

| COMPOUND | RESULT |
| --- | --- |
| O=C(NCc1cccc(O)c1)c1cc(Cl)c(C(=O)N[C@@H](CNC(=O)c2cc(O)cc(O)c2)C(=O)O)c(Cl)c1 [XVA-143] | 7.05 to 7.10 |
